The measured values listed here are drawn from ChEMBL document CHEMBL1133691.

- Test system: Rattus norvegicus
- PROTOCOL TEXT: Area under curve in male SD rats was observed after oral administration in rat
- Type: ADME, organism-based
- MEASUREMENT SETUP: in vivo
Answer each item with its documented AUC.
Write the value in µM·h as a bare number.

# input Determine its reported AUC: CN(Cc1cnc2nc(N)nc(N)c2n1)c1ccc(C(=O)N[C@@H](CCC(=O)O)C(=O)O)cc1 [METHOTREXATE]
# output 0.838

# input Determine its reported AUC: Nc1nc(N)c2cc(COC(=O)c3ccc(C(=O)N[C@@H](CCC(=O)O)C(=O)O)cc3)ccc2n1
# output 0.384

----------
- PROTOCOL TEXT: Time required to reach maximum concentration (Cmax) after oral administration in rat
- Format: ADME, organism-based
- MEASUREMENT SETUP: in vivo
QUANTITY NAME: Tmax (min)
Write the value in min as a bare number.

# input Determine its reported Tmax: Nc1nc(N)c2cc(COC(=O)c3ccc(C(=O)N[C@@H](CCC(=O)O)C(=O)O)cc3)ccc2n1
# output 40.2

----------
- PROTOCOL TEXT: time required to reach maximum concentration (Cmax) after oral administration in rat
- Format: ADME, organism-based
- MEASUREMENT SETUP: in vivo
QUANTITY NAME: Tmax (min)
Write the value in min as a bare number.

# input Determine its reported Tmax: CN(Cc1cnc2nc(N)nc(N)c2n1)c1ccc(C(=O)N[C@@H](CCC(=O)O)C(=O)O)cc1 [METHOTREXATE]
# output 40.2

----------
- PROTOCOL TEXT: plasma clearance was observed after intravenous administration in rat
- Format: ADME, organism-based
QUANTITY NAME: clearance (mL/min/kg)
Write the value in mL/min/kg as a bare number.

# input Determine its reported clearance: CN(Cc1cnc2nc(N)nc(N)c2n1)c1ccc(C(=O)N[C@@H](CCC(=O)O)C(=O)O)cc1 [METHOTREXATE]
# output 11

----------
- System: Rattus norvegicus
- PROTOCOL TEXT: Mean peak plasma concentration was observed after oral administration in rat
- Type: ADME, organism-based
- Set-up: route oral
- MEASUREMENT SETUP: in vivo
QUANTITY NAME: Cmax (nM)
Write the value in nM as a bare number.

# input State recorded Cmax with Rattus norvegicus, entry Nc1nc(N)c2cc(COC(=O)c3ccc(C(=O)N[C@@H](CCC(=O)O)C(=O)O)cc3)ccc2n1 , no comment.
# output 144

----------
- PROTOCOL TEXT: Plasma clearance was observed after intravenous administration in rat
- Assay type: ADME, organism-based
QUANTITY NAME: clearance
Respond with a number, then the unit of measure.

# input Determine its reported clearance: Nc1nc(N)c2cc(COC(=O)c3ccc(C(=O)N[C@@H](CCC(=O)O)C(=O)O)cc3)ccc2n1
# output 15 mL/min/kg

----------
- System: Rattus norvegicus
- PROTOCOL TEXT: Area under curve in male SD rats was observed after intravenous administration in rat
- Assay type: ADME, organism-based
- MEASUREMENT SETUP: in vivo
QUANTITY NAME: AUC inf (µM·h)
Write the value in µM·h as a bare number.

# input Determine its reported AUC inf: Nc1nc(N)c2cc(COC(=O)c3ccc(C(=O)N[C@@H](CCC(=O)O)C(=O)O)cc3)ccc2n1
# output 1.23

# input Determine its reported AUC inf: CN(Cc1cnc2nc(N)nc(N)c2n1)c1ccc(C(=O)N[C@@H](CCC(=O)O)C(=O)O)cc1 [METHOTREXATE]
# output 1.56
